Target: UniProtKB P48048
Sequence (P48048 whole entry): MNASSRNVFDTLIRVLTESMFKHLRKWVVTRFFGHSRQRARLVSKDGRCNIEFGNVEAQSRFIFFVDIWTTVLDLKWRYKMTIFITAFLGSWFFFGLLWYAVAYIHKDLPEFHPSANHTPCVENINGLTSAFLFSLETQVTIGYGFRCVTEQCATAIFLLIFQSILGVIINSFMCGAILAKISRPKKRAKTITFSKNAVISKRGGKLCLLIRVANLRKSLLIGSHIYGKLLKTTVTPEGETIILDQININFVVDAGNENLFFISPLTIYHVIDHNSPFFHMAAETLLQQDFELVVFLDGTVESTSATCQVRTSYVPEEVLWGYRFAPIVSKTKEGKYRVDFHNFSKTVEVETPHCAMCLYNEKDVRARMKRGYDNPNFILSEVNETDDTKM
Assay: Thallium Flux Assay
READOUT NAME: pIC50
Formally, pIC50 is defined as -log10 of the concentration c, with c in mol/L.

COMPOUND | pIC50
CC1=C(N2CC[C@]3(CC[C@@](C)(NCc4cnc(-n5cnnn5)cn4)CC3)C2=O)COC1=O [Example 69] | 7.82
CC1=C(N2CC[C@]3(CC[C@@H](N(C)Cc4ccc(-n5ncnn5)nn4)CC3)C2=O)COC1=O [Example 113] | 7.44
CC1=C(N2CC[C@]3(CC[C@H](N(C)Cc4ccc5c(c4)Cn4nnnc4-5)CC3)C2=O)COC1=O [Example 89] | 6.02
CC1=C(N2CC[C@]3(CC[C@@H](N[C@@H](C)c4ccc(-n5cnnn5)nc4)CC3)C2=O)COC1=O [Example 9] | 7.47
CC1=C(N2C(=O)[C@]3(CC[C@H](NCc4ccc5c(c4)Cn4nnnc4-5)CC3)C[C@H]2C)COC1=O [Example 60] | 6.19

Q. Look up pIC50: CC1=C(N2CC[C@]3(CC[C@@H](N[C@H](C)c4ccc(-n5cnnn5)cn4)CC3)C2=O)COC1=O [Example 32]
A. 6.96

Q. Look up pIC50: C[C@@H]1C[C@]2(CC[C@@H](NCc3ccc(-n4cnnn4)nc3)CC2)C(=O)N1C1=CC(=O)OC1 [Example 23]
A. 6.14

Q. Look up pIC50: C[C@H]1C[C@]2(CC[C@@H](NCc3ccc4c(c3)Cn3nnnc3-4)CC2)C(=O)N1C1=CC(=O)OC1 [Example 63]
A. 7.64
